# Test system: Plasmodium falciparum
# assay-protocol: Confirmatory screen in NF54 pLDH assay, in single point, at 2uM, 72h
# Type: functional, Erythrocyte
# condition-label: timepoint 72 hour
Hit rate of the full screen: of about 4,800 compounds, about 410 (8.5%) showed an effect of 50% or more. The sample as a whole holds a higher share of strong results than the screen did.
Form field: % Inhibition (one value per entry).
result-type: % Inhibition (%)

>  <compound>
O=C(c1ccccc1)c1cc(Cl)ccc1NC(=O)[C@H]1CC(=O)N(c2ccc(F)cc2)C1

>  <result-type>
% Inhibition

>  <endpoint-result>
96

$$$$
>  <compound>
CC1CNCC(C)N1Cc1csc(C2CC2)n1 (configuration not stated)

>  <result-type>
% Inhibition

>  <endpoint-result>
-9

$$$$
>  <compound>
CN1CC2(CN(Cc3cnc4ccc(Cl)cn34)C2)OC1=O

>  <result-type>
% Inhibition

>  <endpoint-result>
6

$$$$
>  <compound>
CNCCc1cc(OC)c(OC)c2c1ccc1cc(OC)c(OC)cc12

>  <result-type>
% Inhibition

>  <endpoint-result>
7

$$$$
>  <compound>
CN1CCC(N(C)C2CCCCC2N(C)C(=O)Cc2ccc(O)cc2)CC1 (configuration not stated)

>  <result-type>
% Inhibition

>  <endpoint-result>
4

$$$$
>  <compound>
Cc1ccc(CN2CC(=O)N(C)CC23CCCCC3)nc1

>  <result-type>
% Inhibition

>  <endpoint-result>
-19

$$$$
>  <compound>
COCCn1ccc(C(=O)N[C@H]2CCc3nc(C(C)C)nn3C2)n1

>  <result-type>
% Inhibition

>  <endpoint-result>
1

$$$$
>  <compound>
CCN(CC)C(=O)Oc1cc2nnnn2nc1-c1ccccc1

>  <result-type>
% Inhibition

>  <endpoint-result>
6

$$$$
>  <compound>
Cc1c(C(=O)N2CCC3(CC2)OCCO3)oc2ccc3c(c12)[C@@H](O)CC1(CCCCC1)O3

>  <result-type>
% Inhibition

>  <endpoint-result>
10

$$$$
>  <compound>
Cc1ccccc1[C@H](C)NC1=NCCO1

>  <result-type>
% Inhibition

>  <endpoint-result>
6

$$$$
>  <compound>
CCCS(=O)(=O)NC[C@H]1C[C@@H]2CCN1C[C@@H]2c1cc(C(CC)CC)nc(-c2ccncc2)n1

>  <result-type>
% Inhibition

>  <endpoint-result>
25

$$$$
>  <compound>
COc1ccc(-c2csc(-n3cc(C4=CCN(CCO)CC4)cn3)n2)cc1

>  <result-type>
% Inhibition

>  <endpoint-result>
40

$$$$
>  <compound>
O[C@@]1(Cc2ccccc2)CN2CCC1CC2

>  <result-type>
% Inhibition

>  <endpoint-result>
3

$$$$
>  <compound>
O=C(Cc1cnc2ccccn12)N1C[C@H]2CC[C@@H](C1)N(Cc1ccccn1)C2

>  <result-type>
% Inhibition

>  <endpoint-result>
20

$$$$
>  <compound>
CCCC(=O)N(C(=O)CCC)c1ccc2[nH]c(=O)oc2c1

>  <result-type>
% Inhibition

>  <endpoint-result>
-1

$$$$
>  <compound>
O=C1NC(=O)C2(Cc3cccc(F)c3N3CCC(c4ccccc4)CC32)C(=O)N1c1ccccc1 (configuration not stated)

>  <result-type>
% Inhibition

>  <endpoint-result>
-18

$$$$
>  <compound>
O=C(NC[C@H]1C[C@@H]2CC[N@]1C[C@@H]2CN1CCC(Cc2ccccc2)CC1)Nc1ccccc1

>  <result-type>
% Inhibition

>  <endpoint-result>
27

$$$$
>  <compound>
CN(C)[C@@H](Cn1c(=O)[nH]c2ccccc2c1=O)c1ccco1

>  <result-type>
% Inhibition

>  <endpoint-result>
-13

$$$$
>  <compound>
O=C(Cc1noc2ccccc12)N1CC2CCCC(C1)N2

>  <result-type>
% Inhibition

>  <endpoint-result>
11

$$$$
>  <compound>
O=S(=O)(NC12CCCC1CNC2)c1onc(C2CC2)c1Cl (configuration not stated)

>  <result-type>
% Inhibition

>  <endpoint-result>
97

$$$$
>  <compound>
Cn1cc(Br)cc1C(=O)C(Cl)(Cl)Cl

>  <result-type>
% Inhibition

>  <endpoint-result>
-6

$$$$
>  <compound>
C[C@@H]1N=C(c2ccccc2)c2cc(Cl)ccc2N(CC(=O)Nc2cccc(C(F)(F)F)c2)C1=O

>  <result-type>
% Inhibition

>  <endpoint-result>
11

$$$$

----------
# Test system: Plasmodium falciparum
# assay-protocol: Confirmatory screen in NF54 pLDH assay, in single point, at 2uM, 72h
# Format: functional, Erythrocyte
# condition-label: timepoint 72 hour
Hit rate of the full screen: of about 4,800 compounds, about 410 (8.5%) showed an effect of 50% or more. The entries come from a sample that favours strong results as a whole.
Criterion: % Inhibition strictly less than 10%. Met: 1. Not met: -1.

>  <compound>
Cc1cc(C(=O)NC2CC(C)n3ccnc32)nn1C(C)C (stereo not given)

>  <class-name>
-1

$$$$
>  <compound>
COc1cnc(C(F)(F)F)nc1N1CCNCC1

>  <class-name>
1

$$$$
>  <compound>
O=c1[nH]c2cc(NS(=O)(=O)c3ccc(C4CCCCC4)cc3)ccc2o1

>  <class-name>
1

$$$$
>  <compound>
c1ccc2c(CCNC3(c4nnnn4C4CCCCC4)CCCCC3)c[nH]c2c1

>  <class-name>
-1

$$$$
>  <compound>
CN1CC[C@]2(CCN(c3ccnc4ccsc34)C2)C1

>  <class-name>
-1

$$$$
>  <compound>
Cc1ccc(Cl)c(NC(=O)N2CCC[C@H](c3n[nH]c(=O)o3)C2)c1

>  <class-name>
1

$$$$
>  <compound>
CCn1cnc2c(N3C4CCC3C(C(=O)OC(C)(C)C)C4)ncnc21 (stereo not given)

>  <class-name>
1

$$$$
>  <compound>
C[C@@H](Cc1ccc(O)cc1)NCc1cc[nH]n1

>  <class-name>
-1

$$$$
>  <compound>
Clc1ccc(C2CC(c3cccnc3)Nc3ncnn32)cc1 (stereo not given)

>  <class-name>
1

$$$$
>  <compound>
CCOc1ccccc1NC(=O)c1cn(Cc2ccc(N)cc2)cn1

>  <class-name>
1

$$$$
>  <compound>
CN(C)C(=O)Oc1cccc2ccc(CN3CCC(N4CCN(c5ccc(C(F)(F)F)cn5)CC4)CC3)nc12

>  <class-name>
1

$$$$
>  <compound>
CCN1C[C@]2(COC)CC[C@H](OC)[C@@]34C5C[C@@H]6[C@@H](OC)C[C@@](O)(C5[C@H]6OC(=O)c5ccccc5)[C@@H](CC23)C14 (stereo not given in full)

>  <class-name>
-1

$$$$
>  <compound>
CCc1nsc(N2CCC3CCC(C2)N3C)n1 (stereo not given)

>  <class-name>
1

$$$$
>  <compound>
CC(=O)N(C1CCN(Cc2ccccc2)CC1)C1(C(=O)Nc2ccc3[nH]ccc3c2)CCN(C)CC1

>  <class-name>
-1

$$$$
>  <compound>
C=CCN(C)C[C@H]1CN2CC[C@H]1C[C@@H]2CNC(=O)Nc1ccc(OC(F)(F)F)cc1

>  <class-name>
-1

$$$$
>  <compound>
CC(C)(C)NC(=O)C1CC2CCCCC2CN1 (stereo not given)

>  <class-name>
1

$$$$
>  <compound>
C=CC1CN2CCC1CC2C12Nc3ccccc3C1(O)CCO2 (stereo not given)

>  <class-name>
1

$$$$
>  <compound>
Cc1cc(=O)c(OCC(=O)N2CCN([C@@H](c3ccccc3)c3ccc(Cl)cc3)CC2)c[nH]1

>  <class-name>
-1

$$$$
>  <compound>
C=CCCC(CN1C[C@H]2CC=CC[C@H]2C1)Oc1ncc(F)cn1 (stereo not given in full)

>  <class-name>
-1

$$$$
>  <compound>
O=C1NC(=O)C2(Cc3cc(C(F)(F)F)ccc3N3CCCCC32)C(=O)N1c1ccccc1 (stereo not given)

>  <class-name>
1

$$$$
